experiment: Oral Bioavailability in CD-1 mice; assay type: in vivo; conditions: mouse, blood; male CD-1 mice, single oral dose, LC-MS/MS; read-out: % F (mean oral bioavailability)

# Molecule, bioavailability, %
measured = [
    ("C#Cc1c(F)ccc2cc(O)cc(-c3nc(OC)c4c(N5CC6CCC(C5)N6)nc(OCC(=C)CN5CC6CC6C5)nc4c3F)c12 (stereo not shown)", 10.6),
    ("C#Cc1c(F)ccc2cc(O)cc(-c3nc(OC)c4c(N5CC6CCC(C5)N6)nc(OCC(=C)CN5CC6C(F)C6C5)nc4c3F)c12 (stereo not shown)", 7.7),
    ("C#Cc1c(F)ccc2cc(O)cc(-c3nc(OC)c4c(N5CC6CCC(C5)N6)nc(OCC(CN5CC6CC6C5)=C(C)C)nc4c3F)c12 (stereo not shown)", 12.1),
    ("[2H]C([2H])([2H])Oc1nc(-c2cc(O)cc3ccc(F)c(C#C)c23)c(F)c2nc(OCC(=C)CN3CC4CC4C3)nc(N3CC4CCC(C3)N4)c12 (stereo not shown)", 1.7),
]
